# settings: [M-H]-; instrument: DT; single field, calibrated with ESI Low Concentration Tuning Mix (Agilent)
Record form. Attribute: collision cross section (N2). Fill in for each entry.
Answers are plain numbers, in Å².

Would you please look over these solved cases?
OC[C@H]1O[C@H](O[C@H]2[C@H](O)[C@@H](O)[C@H](O)O[C@@H]2CO)[C@H](O)[C@@H](O)[C@@H]1O : 180.1
Nc1nc(=O)c2ncn([C@@H]3O[C@H](COP(=O)(O)OP(=O)(O)O[C@H]4O[C@H](CO)[C@@H](O)[C@H](O)[C@@H]4O)[C@@H](O)[C@H]3O)c2[nH]1 [GUANOSINE DIPHOSPHATE MANNOSE] : 209

Turning now to a further compound:
// returns reported collision cross section (N2) for input O=C(O)[C@@H](O)[C@H](O)[C@H](O)[C@@H](O)C(=O)O [GALACTARATE]
132.6

====

# settings: [M+H]+; instrument: DT; stepped-field
observable: collision cross section (N2)
The answer should read as a number with its unit following.

Some compounds with recorded collision cross section (N2):
CCCCCCCCCCCCC=CC[C@@H](O)[C@H](CO[C@@H]1O[C@H](CO)[C@@H](O)C(O)C1O)NC(=O)CC=CCCCCCCCCCCCCCCCCCCCCC (stereo partly specified) [GlcCer(43:02)] : 302.04 Å²
CCCCCCCCCCCCC=CC[C@@H](O)[C@H](CO[C@@H]1O[C@H](CO)[C@@H](O)C(O)C1O)NC(=O)CCCCCCCCCCCCCCCCCCC (stereo partly specified) [GlcCer(38:01)] : 288.15 Å²

Please look at the items below and tell me collision cross section (N2) for each one, in order.
1. CCCCCCCCCCCCCCCCCCCC(=O)N[C@@H](CO[C@@H]1O[C@H](CO)[C@@H](O)C(O)C1O)[C@H](O)CCCCCCCCCCCCCCC (stereo partly specified) [GlcCer(38:00)]
2. CCCCCCCCCCCCC=CC[C@@H](O)[C@H](CO[C@@H]1O[C@H](CO)[C@@H](O)C(O)C1O)NC(=O)CCCCCCCCCCCCCCCCCCCCCC (stereo partly specified) [GlcCer(41:01)]
3. CCCCCCCCCCCCC=CC[C@@H](O)[C@H](CO[C@@H]1O[C@H](CO)[C@@H](O)C(O)C1O)NC(=O)CC=CCCCCCCCCCCCCCCCCCCCCCC (stereo partly specified) [GlcCer(44:02)]
4. CCCCCCCCCCCCC=CC[C@@H](O)[C@H](COP(=O)([O-])OCC[N+](C)(C)C)NC(=O)CCCCCCCCCCCCCCCCCC [SM(37:01)]
5. CCCCCCCCCCCCC=CC[C@@H](O)[C@H](COP(=O)([O-])OCC[N+](C)(C)C)NC(=O)CC=CCCCCCCCCCCCCCCCCCCCC [SM(42:02)]
6. CCCCCCCCCCCCC=CC[C@@H](O)[C@H](CO)NC(=O)CC=CCCCCCCCCCCCCCCCCCCCC [Cer(42:02)]
7. CCCCCCCCCCCCC=CC[C@@H](O)[C@H](CO[C@@H]1O[C@H](CO)[C@@H](O)C(O)C1O)NC(=O)CCCCCCCCCCCCCCCCCCCCCCC (stereo partly specified) [GlcCer(42:01)]

1: 290.18 Å²; 2: 297.12 Å²; 3: 305.11 Å²; 4: 288.67 Å²; 5: 301.43 Å²; 6: 276.77 Å²; 7: 300.59 Å²

Quick batch: collision cross section (N2) for everything below.
1. CCCCCCCCCCCCC=CC[C@@H](O)[C@H](CO[C@@H]1O[C@H](CO)[C@@H](O)C(O)C1O)NC(=O)CCCCCCCCCCCCCCCCCCCCC (stereo partly specified) [GlcCer(40:01)]
2. CCCCCCCCCCCCC=CC[C@@H](O)[C@H](COP(=O)([O-])OCC[N+](C)(C)C)NC(=O)CCCCCCCCCCCCCCCCCCC [SM(38:01)]

1. 293.87 Å²
2. 292.26 Å²

====

Would you mind telling me the reported collision cross section (N2) of each entry?
# settings: [M+Na]+; instrument: TW; calibrated with polyalanine and drug standards
Give bare numbers, in Å².

CCCCCCCCCCCCCCCCC(C(=O)O)C(O)(CC(=O)O)C(=O)O (centres undefined) : 213.1
CC(=O)Oc1cc(OC(C)=O)c2c(c1)O[C@H](c1ccc(OC(C)=O)c(OC(C)=O)c1)[C@@H](OC(C)=O)C2 [CATECHIN PENTAACETATE] : 206.6
OC[C@H]1O[C@H](OC[C@H]2OC(O)[C@H](O)[C@@H](O)[C@@H]2O)[C@H](O)[C@@H](O)[C@H]1O (some centres undefined) : 174.8

Continue with the compound presented below.
GET /values?readout=collision cross section (N2)&item= CO[C@H]1C[C@@H]2CC[C@@H](C)[C@@](O)(O2)C(=O)C(=O)N2CCCC[C@H]2C(=O)O[C@H]([C@H](C)C[C@@H]2CC[C@@H](O)[C@H](OC)C2)CC(=O)[C@H](C)/C=C(\C)[C@@H](O)[C@@H](OC)C(=O)[C@H](C)C[C@H](C)/C=C/C=C/C=C/1C
311.6

====

# settings: [M+H]+; instrument: TW; calibrated with phosphatidylcholines (ESI+) and phosphatidylethanolamines (ESI-)
Consider the following molecules; for each one, report its collision cross section (N2).
Answers are plain numbers, in Å².

Sample records with collision cross section (N2):
CCCCCCCCCCCCC=CC[C@@H](O)[C@H](CO)NC(=O)CCCCCCCCCCCCCCCCCCCCC [Cer(d18:0/22:1)] : 271.9
CCCCCCCCCCCCC=CC[C@@H](O)[C@H](COP(=O)([O-])OCC[N+](C)(C)C)NC(=O)CCCCCCCCCCCCCCCCCCC : 292.2

# context switch: different molecule, same collision cross section (N2)
Please report the recorded collision cross section (N2) for CC/C=C\C/C=C\C/C=C\C/C=C\C/C=C\C/C=C\CCC(=O)OC[C@H](COP(=O)(O)OCCN)OC(=O)CCC/C=C\C/C=C\C/C=C\C/C=C\C/C=C\CC .
280.2

====

# settings: [M+Na]+; instrument: DT; single field, calibrated with Agilent tune mix (Agilent)
observable: collision cross section (N2) (Å²)
One number for each entry, in Å².

Answered cases to consult:
CCCCC[C@H](O)/C=C/[C@H]1[C@H](O)CC(=O)[C@@H]1CCCCCCC(=O)O [Prostaglandin E1] : 198.3
Cc1cn([C@@H]2O[C@H](CO)[C@@H](O)[C@H]2O)c(=O)[nH]c1=O : 165.6
CC(=O)N[C@H]1[C@H]([C@H](O)[C@H](O)CO)OC(O)(C(=O)O)C[C@@H]1O (stereo partly specified) : 168.6
O=C(O)c1ccccc1O[C@@H]1O[C@H](C(=O)O)[C@@H](O)[C@H](O)[C@H]1O [1-Salicylate glucuronide] : 170.1
O=C(O)C(COP(=O)(O)O)OP(=O)(O)O (stereo unspecified) : 152.3
OC[C@@H](O)[C@@H](O)[C@H](O)[C@H](O)CO : 141
CC(=O)Oc1cc(C)c(OC(C)=O)c2ccccc12 : 157.2
C=CC1=C(C)C(/C=c2\[nH]/c(=C\c3[nH]c(/C=C4\NC(=O)C(C)=C4C=C)c(C)c3CCC(=O)O)c(CCC(=O)O)c2C)=NC1=O : 246.7

Hi, could you look up collision cross section (N2) for each item in my list?
1. Nc1ncnc2c1ncn2[C@@H]1O[C@H](COP(=O)(O)OS(=O)(=O)O)[C@@H](O)[C@H]1O [Adenosine 5'-phosphosulfate]
2. O=P(O)(O)OC[C@H]1O[C@@H](O)C[C@@H]1O [Deoxyribose 5-phosphate]
3. N#C[C@H](O[C@@H]1O[C@H](CO)[C@@H](O)[C@H](O)[C@H]1O)c1ccccc1
4. O=C(O)[C@H](O)[C@@H](O)[C@H](O)[C@H](O)COP(=O)(O)O [6-Phospho-D-gluconate]
5. OC[C@H]1OC(O)[C@H](O)[C@H](O)[C@@H]1O (stereo partly specified)

1. 190.4
2. 148.4
3. 173.7
4. 157.3
5. 143.1

Could I get collision cross section (N2) for every one of these entries?
1. O=C(O)C1(O)C[C@@H](O)C(O)[C@H](O)C1 (stereo partly specified) [Quinate]
2. OC[C@@H](O)C(O)[C@@H](O)CO (stereo partly specified) [Xylitol]

150.9
135.3

Please report the recorded collision cross section (N2) for OC[C@H]1O[C@H](OC2[C@@H](O)[C@H](O)C(O)[C@H](O)[C@@H]2O)[C@H](O)[C@@H](O)[C@H]1O (stereo partly specified) .
177.7

====

Please provide measured collision cross section (N2) for the entries that follow.
# settings: [M+H]+; instrument: TW; calibrated with polyalanine and drug standards
Remember to quote the unit after the number.

C[C@@H]1CC[C@@]2(OC1)O[C@H]1C[C@H]3[C@@H]4CC[C@@H]5C[C@@H](O)CC[C@]5(C)[C@H]4CC[C@]3(C)[C@H]1[C@@H]2C : 207.7 Å²

Each compound below has a reported value. Please supply its collision cross section (N2).
1. C[C@@H]1C[C@H]2[C@@H]3C[C@H](F)C4=CC(=O)C=C[C@]4(C)[C@@]3(F)[C@@H](O)C[C@]2(C)[C@@]1(O)C(=O)CO
2. CC(=O)OC1CC[C@@]2(C)C(CC[C@H]3[C@@H]4CC=C(C(C)=O)[C@@]4(C)C(=O)C[C@@H]32)C1 (stereo partly specified)
3. NCCc1ccc(O)c(O)c1 [3-HYDROXYTYRAMINE]
4. C/C=C(/C)C(=O)O[C@H]1CC[C@@]2(C)[C@@H]3CC[C@H]4[C@]5(O)C[C@H](O)[C@@]6(O)[C@@H](CN7C[C@@H](C)CC[C@H]7[C@@]6(C)O)[C@]5(O)C[C@@]42O[C@]13O
5. CCOC(=O)n1ccn(C)c1=S

1. 189.2 Å²
2. 189.5 Å²
3. 127.7 Å²
4. 237.2 Å²
5. 134.4 Å²
